In this section, each of the compounds is paired with its reported INHIBITION.
tested on: Plasmodium berghei; test: Screen against P. berghei liver stage (PbLuc), transformed with Luciferase, at 2uM; assay type: functional, HepG2; settings: tested at 2 uM
About 2,700 (4%) of roughly 68,000 compounds showed an effect of 50% or more. The full list was thinned out, with strong results kept by preference.
Property name: INHIBITION (%)

- COC(=O)[C@H](C)NC(=O)c1nc(C2CC2)n(-c2ccccc2Cl)n1: 13.65
- CNC(=O)N1C[C@@H]2C[C@H](C(=O)Nc3ccccc3)[C@H](C1)O2: 6.57
- Cn1c(C(F)(F)F)nn(CCNC(=O)CSCc2ccccc2)c1=O: -30.06
- Cc1cnc(CN(C)C(=O)C23CNCC2CNC3)[nH]1 (configuration not stated): -16.03
- COc1ccc2cc(CN(C)CCN3CCCCC3=O)c(=O)[nH]c2c1: 38.12
- CCN1CCN(C2CCN(C(C(N)=O)c3ccccc3)CC2)C1=O (configuration not stated): -42.16
- CC(C)OCCn1nnnc1Cc1ccc(Br)cc1: -21.99
- COc1ccc(CN2CCn3cc(CN4CCCCC4)nc3C2)cc1: -5.87
- COCc1nc(C2CC2)nn1-c1cc(Cl)ccc1OC: 52.98
- COCc1nc(C2CC2)nn1-c1ccccc1Cl: 72.05
- COc1ncc(C2(O)CCN(Cc3cc(F)ccc3F)CC2)c(OC)n1: -48.87
- COCc1nc(C2CC2)nn1-c1cccc(F)c1: -1.57

----------
INHIBITION: recorded values
system: Plasmodium berghei; assay: Screen against P. berghei liver stage (PbLuc), transformed with Luciferase, at 2uM; assay type: functional, HepG2; conditions: tested at 2 uM
Out of some 68,000 compounds screened, about 2,700 (4%) showed an effect of 50% or more. The sample as a whole holds a higher share of strong results than the screen did.
Property name: INHIBITION (%)

* CN(Cc1nc2ccccc2o1)C1CCCN(c2cccnn2)C1 (stereo unspecified) | -16.72
* COCCCNC(=O)c1cc(-c2cnc(N(C)C)nc2)cn1CC1CC1 | 58.6
* CC(C)N(CC(N)=O)C(=O)c1cnc(-c2ccc3c(c2)OCO3)s1 | 75.8
* Cc1noc(C)c1CCC(=O)Nc1ccn(C)n1 | -7.68
* CCC(C(=O)NCc1csc(N2CCOCC2)n1)n1cccn1 (stereo unspecified) | 17.78
* NC1(C(=O)NCCC2CN(Cc3ccco3)CCO2)CCCC1 (stereo unspecified) | 18.98
* CC(Cn1cccn1)NCc1nc(-c2cccc(Cl)c2)no1 (stereo unspecified) | 73.05
* CC(C)CC(C)NCCCN1CCCN(C)CC1 (stereo unspecified) | 19.13
* COc1c(CNCc2ccnc(N(C)C)c2)c(C(C)C)nn1C | 18.85
* O=C1CCC2(CCC(NC3CCOC3)CC2)N1Cc1ccccc1 (stereo unspecified) | 35.34
* Cc1ccc(CN2C(=O)CCC23CCC(NC2CCOC2)CC3)cc1 (stereo unspecified) | 29.85
* CCc1nc(CNC(C)Cn2cccn2)cs1 (stereo unspecified) | 55.7
* Fc1ccc(CNCc2nnc3n2CC(C(F)(F)F)CC3)cc1 (stereo unspecified) | 0.85
* CN(C)c1ncc(-c2cc(C(=O)NCCO)n(CC3CC3)c2)cn1 | 23.53
* CN(C)C(=O)c1cnc(-c2ccc3c(c2)OCO3)s1 | -197.6
* CC(Cn1cccn1)NCC(=O)NCCc1cccs1 (stereo unspecified) | 66.99
* CC(Cn1cccn1)NCc1nc(-c2cccnc2)no1 (stereo unspecified) | -15.36
* Cc1cc(C[S+]([O-])CC(=O)NCC(C)C)no1 (stereo unspecified) | -10.66
* Cc1cc(C[S+]([O-])CC(=O)Nc2c(C)cccc2C)no1 (stereo unspecified) | 51.21
* CCc1nc(CN(C)c2nccc(N3CCCC(O)C3)n2)no1 (stereo unspecified) | 11.38
* CCCc1nc(CNC(C)Cn2cccn2)cs1 (stereo unspecified) | -6.71
* FC(F)(F)C1CCc2nnc(CNCc3ccsc3)n2C1 (stereo unspecified) | -14.84
* O=C1CCC2(CCC(NC3CCOC3)CC2)N1Cc1ccncc1 (stereo unspecified) | 56.76
* N#CC1(NC(=O)COC(=O)Cn2cccn2)CCCC1 | -40.04
* N#CC1(NC(=O)CNCCn2cccn2)CCCCC1 | -45.11
* Cc1cnn(CC(C)NCC(=O)NCCc2cccs2)c1 (stereo unspecified) | -28.18
